Readings of Ki for the listed molecules
# tgt: human NEP (Homo sapiens)
# Construct: purchased R&D Systems, Minneapolis, Minn; 1182-ZN
# Sequence (P08473 whole entry): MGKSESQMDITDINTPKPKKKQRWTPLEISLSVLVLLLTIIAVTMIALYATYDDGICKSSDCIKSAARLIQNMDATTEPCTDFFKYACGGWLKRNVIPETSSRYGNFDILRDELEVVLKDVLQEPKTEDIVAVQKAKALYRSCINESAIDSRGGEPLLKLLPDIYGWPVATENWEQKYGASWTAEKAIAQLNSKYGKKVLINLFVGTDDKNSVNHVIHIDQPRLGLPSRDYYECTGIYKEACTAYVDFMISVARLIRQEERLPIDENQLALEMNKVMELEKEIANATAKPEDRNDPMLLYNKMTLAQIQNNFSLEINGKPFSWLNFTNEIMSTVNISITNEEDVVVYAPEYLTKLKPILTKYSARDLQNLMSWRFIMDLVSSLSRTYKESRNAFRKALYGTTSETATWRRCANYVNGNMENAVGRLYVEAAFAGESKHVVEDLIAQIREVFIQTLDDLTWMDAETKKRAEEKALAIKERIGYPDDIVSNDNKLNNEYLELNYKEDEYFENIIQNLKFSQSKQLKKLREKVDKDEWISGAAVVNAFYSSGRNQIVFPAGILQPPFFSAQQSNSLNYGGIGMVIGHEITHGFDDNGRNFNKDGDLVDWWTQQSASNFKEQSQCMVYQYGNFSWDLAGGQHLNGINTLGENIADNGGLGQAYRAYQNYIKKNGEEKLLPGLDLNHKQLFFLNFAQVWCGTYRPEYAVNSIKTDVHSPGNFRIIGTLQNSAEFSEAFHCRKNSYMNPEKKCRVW
# experiment summary: In vitro enzyme inhibition assay at human NEP (fluorogenic peptide substrate)
# Assay type: biochemical
# measurement conditions: recombinant human NEP; substrate Mca-D-Arg-Arg-Leu-Dap-(Dnp)-OH 10 μM; 37° C.; values given as ranges; read-out: pKi values at human NEP (converted)
measure: Ki

- smiles str: "COc1c(F)cc(Cn2nc(C(=O)N[C@H](Cc3ccccc3Cl)[C@@H](O)C(=O)O)cc2C(=O)O)cc1F"
  result: "≤ 1 nM"
- smiles str: "O=C(N[C@H](Cc1ccccc1Cl)[C@@H](O)C(=O)O)c1cc(C(=O)O)n(Cc2ccc(OC(F)F)cc2)n1"
  result: "≤ 1 nM"
- smiles str: "O=C(N[C@H](Cc1ccccc1Cl)[C@@H](O)C(=O)O)c1cc(-c2cc(Cl)ccc2Cl)n[nH]1"
  result: "1.26 to 10 nM"
- smiles str: "O=C(N[C@H](Cc1ccccc1Cl)[C@@H](O)C(=O)O)c1cc(-c2ccccc2Cl)n(-c2ccc(Cl)c(Cl)c2)n1"
  result: "12.6 to 100 nM"
- smiles str: "CCCc1cc(C(=O)N[C@H](Cc2ccccc2)[C@@H](O)C(=O)O)nn1Cc1ccccc1"
  result: "12.6 to 100 nM"
- smiles str: "O=C(N[C@H](Cc1ccccc1Cl)[C@@H](O)C(=O)O)c1cc(-c2ccccc2Cl)[nH]n1"
  result: "1.26 to 10 nM"
